Tested on: single strand I (-T7G8T9-) (DNA, single strand) CTCTCTTGTCTTCTC
TEST DESCRIPTION: HPLC-UV peak areas, two-step stoichiometric fit
CONDITIONS: none listed (50 mM triethylammonium acetate buffer only); 50 mM TEAA pH 7, 310 K, 24 h; covalent; site 1 of 2 (G8)
RESULT TYPE: K1

Lookup: Quick check: K1 of Cc1ccc(C(C)C)cc1.NCCN.[Cl-].[Ru+2] ?
Found: 3.94 ± 0.24 × 10^4 M^−1

Lookup: Look up K1 for this molecule: NCCN.[Cl-].[Ru+2].c1ccccc1
Found: 0.79 ± 0.04 × 10^4 M^−1

Lookup: Reported K1, molecule NCCN.[Cl-].[Ru+2].c1ccc2c(c1)CCC2 : ____
Found: 2.52 ± 0.13 × 10^4 M^−1

Lookup: I'd like to know its K1. The molecule in question is NCCN.[Cl-].[Ru+2].c1ccc(-c2ccccc2)cc1
Found: 2.92 ± 0.46 × 10^4 M^−1

The measured values listed here are drawn from paper PMC6073332.
